Tested on: K562
Assay: Induction of apoptosis in human K562 cells assessed as gated cells at early apoptotic stage at antiproliferative IC50 after 72 hrs by Annexin-V-FITC/propidium iodide staining based flow cytometry relative to control (reference value: 0.46 to 0.67%)
Assay type: functional
Reported Property: Activity
Just the number plus its unit, please.

// solved cases for Activity follow
>>> print(df.to_string())
                                smiles_repr  reported_property     val
0  [N-]=[N+]=N[C@@H](c1ccccc1)[C@H]1O[C@@H]2CC(=O)O[C@@H]2[C@H]1O           Activity   1.65%
1  O=C1C[C@H]2O[C@H]([C@@H](Br)c3ccccc3)[C@H](O)[C@H]2O1           Activity   1.29%
2     O=C1C[C@H]2O[C@H](CF)[C@H](O)[C@H]2O1           Activity  12.73%
3  O=C1C[C@H]2O[C@H]([C@H](Br)c3ccccc3)[C@H](O)[C@H]2O1           Activity   1.62%

Shifting focus to the molecule that follows.
Query :: Dear colleague, I am looking for the recorded Activity of the following molecule: `O=C1C[C@H]2O[C@H]([C@H](Cl)c3ccccc3)[C@H](O)[C@H]2O1`
Result :: 15.4%

====

Test system: K562
Experiment: Induction of apoptosis in human K562 cells assessed as precursor PARP expression level at antiproliferative IC50 after 72 hrs by western blot analysis relative to control
Assay type: functional
Hi there, I'd appreciate the recorded Activity for every entry that follows.
Numbers only, in %.

In [3]: df
Out[3]:
                                smiles_repr  reported_property    val
0    O=C1C[C@H]2O[C@H](CCl)[C@H](O)[C@H]2O1           Activity  230.7
1  O=C1C[C@H]2O[C@H]([C@@H](Br)c3ccccc3)[C@H](O)[C@H]2O1           Activity  130.6

Please supply Activity for each of the following items, keeping them in order.
1. O=C1C[C@H]2O[C@H]([C@H](Br)c3ccccc3)[C@H](O)[C@H]2O1
2. O=C1C[C@H]2O[C@H]([C@@H](Cl)c3ccccc3)[C@H](O)[C@H]2O1
3. O=C1C[C@H]2O[C@H]([C@@H](I)c3ccccc3)[C@H](O)[C@H]2O1
4. O=C1C[C@H]2O[C@H](CO)[C@H](O)[C@H]2O1
5. O=C1C[C@H]2O[C@H]([C@H](F)c3ccccc3)[C@H](O)[C@H]2O1
6. O=C1C[C@H]2O[C@H]([C@@H](O)c3ccccc3)[C@H](O)[C@H]2O1
7. O=C1C[C@H]2O[C@H]([C@H](Cl)c3ccccc3)[C@H](O)[C@H]2O1

Result ::
154.5
134.9
118.2
132.6
161.8
116.8
118.7

====

Hi there, I'd appreciate the recorded pIC50 for every entry that follows.
System: MCF7
Assay: Antiproliferative activity against human MCF7 cells after 72 hrs by MTT assay
Assay type: functional, cell-based
Conditions: MCF7, 72 h
One number for each entry, as −log10 of the molar value.

// solved cases for pIC50 follow
In [3]: df
Out[3]:
                                smiles_repr   val
0  [N-]=[N+]=N[C@@H](c1ccccc1)[C@H]1O[C@@H]2CC(=O)O[C@@H]2[C@H]1O  4.35
1  O=C1C[C@H]2O[C@H]([C@H](O)c3ccccc3)[C@H](O)[C@H]2O1  4.78
2  O=C1C[C@H]2O[C@H]([C@@H](F)c3ccccc3)[C@H](O)[C@H]2O1  4.51
3  [N-]=[N+]=N[C@H](c1ccccc1)[C@H]1O[C@@H]2CC(=O)O[C@@H]2[C@H]1O  5.05
4  O=C1C[C@H]2O[C@H]([C@@H](I)c3ccccc3)[C@H](O)[C@H]2O1  5.89
5     O=C1C[C@H]2O[C@H](CO)[C@H](O)[C@H]2O1  4.62
6  O=C1C[C@H]2O[C@H]([C@H](F)c3ccccc3)[C@H](O)[C@H]2O1  4.67
7     O=C1C[C@H]2O[C@H](CF)[C@H](O)[C@H]2O1  5.45
8    O=C1C[C@H]2O[C@H](CBr)[C@H](O)[C@H]2O1  5.21
9  O=C1C[C@H]2O[C@H]([C@H](I)c3ccccc3)[C@H](O)[C@H]2O1  4.68

Please supply pIC50 for each of the following items, keeping them in order.
1. [N-]=[N+]=NC[C@H]1O[C@@H]2CC(=O)O[C@@H]2[C@H]1O
2. O=C1C[C@H]2O[C@H](CI)[C@H](O)[C@H]2O1

Result ::
[6.07, 5.58]
